# credit: patent US9944602B2

Exercise: for every item that follows, state its recorded Plant response rating, Foxtail, Giant.
System: foxtail, giant (giant foxtail, Setaria faberii)
assaySummary: Test A postemergence foxtail, giant
Format: in vivo
conditionLabel: 500 g ai/ha, 0 to 100 scale, 0 is no effect, 100 is complete control
Give only the figure.

Lookup: Report Plant response rating, Foxtail, Giant, nothing else, for this compound: O=C1NCCC(c2cccc(C(F)(F)F)c2)C1C(=O)Nc1ccc(F)cc1F (racemic)
Found: 70

Lookup: Report Plant response rating, Foxtail, Giant, nothing else, for this compound: CS(=O)(=O)c1ccccc1NC(=O)C1C(=O)NCCC1c1cccc(C(F)(F)F)c1 (racemic)
Found: 40

Lookup: Report Plant response rating, Foxtail, Giant, nothing else, for this compound: O=C(Nc1ccccc1C(F)(F)F)C1C(=O)N(C2CC2)CCC1c1ccc(F)cc1 (centres unmarked)
Found: 0

Lookup: Report Plant response rating, Foxtail, Giant, nothing else, for this compound: O=C1NCCC(c2cccc(C(F)(F)F)c2)C1C(=O)Nc1cccc(F)c1Cl (racemic)
Found: 80

Lookup: Report Plant response rating, Foxtail, Giant, nothing else, for this compound: O=C1NCCC(c2cccc(OC(F)F)c2)C1C(=O)Nc1ccccc1F (racemic)
Found: 50

Lookup: Report Plant response rating, Foxtail, Giant, nothing else, for this compound: O=C1NCCC(c2cccc(OC(F)(F)F)c2)C1C(=O)Nc1ccccc1F (racemic)
Found: 70

Lookup: Report Plant response rating, Foxtail, Giant, nothing else, for this compound: O=C(Nc1ccccc1C(F)(F)F)C1C(=O)N(Cc2ccccc2)CCC1c1ccc(F)cc1 (centres unmarked)
Found: 0

Lookup: Report Plant response rating, Foxtail, Giant, nothing else, for this compound: O=C1NCCC(c2ccc(C(F)(F)F)cc2)C1C(=O)Nc1ccccc1C(F)(F)F (racemic)
Found: 60

Lookup: Report Plant response rating, Foxtail, Giant, nothing else, for this compound: O=C1NCCC(c2ccccc2C(F)(F)F)C1C(=O)Nc1ccccc1C(F)(F)F (racemic)
Found: 0

Lookup: Report Plant response rating, Foxtail, Giant, nothing else, for this compound: O=C1NCCC(c2ccc(F)c(F)c2)C1C(=O)Nc1ccccc1C(F)(F)F (racemic)
Found: 70

Lookup: Report Plant response rating, Foxtail, Giant, nothing else, for this compound: O=C1NCCC(c2cccc(OC(F)F)c2)C1C(=O)Nc1ccc(F)c(F)c1F (racemic)
Found: 80

Lookup: Report Plant response rating, Foxtail, Giant, nothing else, for this compound: O=C1NCC[C@@H](c2cccc(C(F)(F)F)c2)[C@@H]1C(=O)Nc1cccc(Cl)c1F
Found: 80

Lookup: Report Plant response rating, Foxtail, Giant, nothing else, for this compound: O=C1NCCC(c2ccccc2)C1C(=O)Nc1ccccc1F (racemic)
Found: 0

Lookup: Report Plant response rating, Foxtail, Giant, nothing else, for this compound: O=C1NCCC(c2ccc(F)cc2)C1C(=O)Nc1ccccc1F (racemic)
Found: 0

Lookup: Report Plant response rating, Foxtail, Giant, nothing else, for this compound: O=C1NCC[C@@H](c2ccc(C(F)(F)F)cc2)[C@@H]1C(=O)Nc1cccc(F)c1F
Found: 60

Lookup: Report Plant response rating, Foxtail, Giant, nothing else, for this compound: O=C1NCCC(c2ccc(F)c(F)c2)C1C(=O)Nc1ccccc1F (racemic)
Found: 0

Lookup: Report Plant response rating, Foxtail, Giant, nothing else, for this compound: O=C1NCCC(c2cccc(Cl)c2)C1C(=O)Nc1ccccc1C(F)(F)F (racemic)
Found: 90

Lookup: Report Plant response rating, Foxtail, Giant, nothing else, for this compound: O=C1NCC[C@@H](c2cccc(Cl)c2)[C@@H]1C(=O)Nc1cccc(F)c1F
Found: 0

Lookup: Report Plant response rating, Foxtail, Giant, nothing else, for this compound: O=C1NCCC(c2ccccc2)C1C(=O)Nc1ccccc1C(F)(F)F (racemic)
Found: 0

Lookup: Report Plant response rating, Foxtail, Giant, nothing else, for this compound: O=C1NCCC(c2ccc(C(F)(F)F)cc2)C1C(=O)Nc1cccc(F)c1Cl (racemic)
Found: 80

Lookup: Report Plant response rating, Foxtail, Giant, nothing else, for this compound: O=C1NCCC(c2cccc(C(F)F)c2)C1C(=O)Nc1ccc(F)c(F)c1F (centres unmarked)
Found: 80

Lookup: Report Plant response rating, Foxtail, Giant, nothing else, for this compound: O=C1NCC[C@@H](c2cccc(C(F)(F)F)c2)[C@@H]1C(=O)Nc1cccc(F)c1F
Found: 80

Lookup: Report Plant response rating, Foxtail, Giant, nothing else, for this compound: O=C1NCCC(c2cccc(C(F)(F)F)c2)C1C(=O)Nc1cccc(Cl)c1Cl (racemic)
Found: 80

Lookup: Report Plant response rating, Foxtail, Giant, nothing else, for this compound: O=C1NCC[C@@H](c2ccc(C(F)(F)F)cc2)[C@@H]1C(=O)Nc1ccc(F)c(F)c1F
Found: 0

Lookup: Report Plant response rating, Foxtail, Giant, nothing else, for this compound: O=C1NCC[C@@H](c2cccc(C(F)(F)F)c2)[C@@H]1C(=O)Nc1ccc(F)c(F)c1F
Found: 0

Lookup: Report Plant response rating, Foxtail, Giant, nothing else, for this compound: O=C1NCCC(c2ccc(F)cc2)C1C(=O)Nc1ccccc1C(F)(F)F (racemic)
Found: 0

Lookup: Report Plant response rating, Foxtail, Giant, nothing else, for this compound: O=C1NCCC(c2cccc(OC(F)(F)F)c2)C1C(=O)Nc1ccccc1C(F)(F)F (racemic)
Found: 60

Lookup: Report Plant response rating, Foxtail, Giant, nothing else, for this compound: O=C1NCCC(c2cccc(C(F)(F)F)c2)C1C(=O)Nc1ccc(F)c(F)c1F (racemic)
Found: 90

Lookup: Report Plant response rating, Foxtail, Giant, nothing else, for this compound: O=C1NCCC(c2cccc(OC(F)(F)F)c2)C1C(=O)Nc1cccc(F)c1F (racemic)
Found: 90

Lookup: Report Plant response rating, Foxtail, Giant, nothing else, for this compound: O=C1NCCC(c2cccc(C(F)(F)F)c2)C1C(=O)Nc1cccc(Cl)c1F (racemic)
Found: 80

Lookup: Report Plant response rating, Foxtail, Giant, nothing else, for this compound: O=C1NCCC(c2ccccc2C(F)(F)F)C1C(=O)Nc1cccc(F)c1F (racemic)
Found: 0

Lookup: Report Plant response rating, Foxtail, Giant, nothing else, for this compound: O=C1NCCC(c2cccc(Cl)c2)C1C(=O)Nc1ccccc1F (racemic)
Found: 80
